- TEST DESCRIPTION: AUC in fed Sprague-Dawley rat at 250 mg/kg, po
- Format: ADME, organism-based
- Set-up: dose 250 mg/kg, route oral
- CONDITION PARAMETERS: plasma
RECORDED ENDPOINT: AUC (µM·h)
Output spec: scalar in µM·h, unitless text.

Data point: Cc1cc2c(-c3ccc[nH]c3=O)c(C(=O)O)n(Cc3cc4ccccc4nc3Cl)c2cc1F ; AUC = 1090

====

- TEST DESCRIPTION: Ratio of drug uptake in brain to plasma of Sprague-Dawley rat at 10 mg/kg, po
- Type: ADME, organism-based
- Design: dose 10 mg/kg, route oral
- CONDITION PARAMETERS: read-out: BPR
RECORDED ENDPOINT: Kp

Data point: Cc1cc2c(-c3ccc[nH]c3=O)c(C(=O)[O-])n(Cc3cc4ccccc4nc3Cl)c2cc1F.[Na+] ; Kp = < 0.01
